- assay-text: Growth inhibition of human UACC257 cells at 10 uM after 48 hrs by sulforhodamine B assay
- Assay type: functional
- measurement-setup: UACC-257, 48 h, read-out: GI
List of inhibition of growth at 10 µM values.

query-smiles	inhibition of growth at 10 µM
COc1ccc(Cc2nnc(Nc3ccc(NC(=O)Nc4ccc(OC)cc4)cc3)c3ccccc23)cc1	< 30%
COc1ccc(Cc2nnc(Nc3ccc(Cl)cc3)c3ccccc23)cc1	< 30%
COc1ccc(Cc2nnc(Nc3cccc(Cl)c3)c3ccccc23)cc1	< 30%
COc1ccc(Cc2nnc(Nc3ccc(NC(=O)Nc4cccc(C(F)(F)F)c4)cc3)c3ccccc23)cc1	< 30%
COc1ccc(Cc2nnc(Nc3ccc(OC)cc3)c3ccccc23)cc1	< 30%
COc1ccc(Cc2nnc(Nc3ccc(Cl)c(C(F)(F)F)c3)c3ccccc23)cc1	< 30%
COc1ccc(Cc2nnc(Nc3ccc(C#N)cc3)c3ccccc23)cc1	< 30%
COc1ccc(Cc2nnc(Nc3ccc(NC(=O)Nc4cccc(OC)c4)cc3)c3ccccc23)cc1	< 30%
